Recorded values, source ChEMBL document CHEMBL4152314.

experimental.details: Selectivity index, ratio of CC50 for African green monkey Vero cells to IC50 for epimastigote form of Trypanosoma cruzi Y
Format: toxicity
measurement.parameters: read-out: Ratio CC50/IC50
measured.metric: selectivity ratio
# output: bare number, no unit

Below, 3 compounds whose answers are already recorded.
>>> reported("COc1ccc(/C=C2\\CCC/C(=C\\c3ccccc3)C2=O)cc1")
14.1
>>> reported("COc1cccc(/C=C2\\CCC/C(=C\\c3ccc(F)cc3)C2=O)c1OC")
1.4
>>> reported("O=C1/C(=C/c2ccc(Br)cc2)CCC/C1=C\\c1ccc(Br)cc1")
2

Which measured selectivity ratio value corresponds to COc1cc([N+](=O)[O-])ccc1/C=C1\CCC/C(=C\c2cccc(OC)c2OC)C1=O ?
4.5

Which measured selectivity ratio value corresponds to COc1cccc(/C=C2\CCC/C(=C\C(C)Cc3ccc4c(c3)OCO4)C2=O)c1OC (stereo not given) ?
6.8

Which measured selectivity ratio value corresponds to COc1ccc(/C=C2\CCC/C(=C\c3c(Cl)cccc3Cl)C2=O)cc1 ?
11.3

###

experimental.details: Selectivity index, ratio of CC50 for African green monkey Vero cells to IC50 for promastigote form of Leishmania amazonensis MHOM/BR/Josefa
Type: toxicity
measurement.parameters: read-out: Ratio CC50/IC50
Where selectivity ratio equals or exceeds 10, the correct label is Y; where it does not, the label is N.

Solved cases below.
>>> group_label("COc1cccc(/C=C2\\CCC/C(=C\\c3cc(OC)c(OC)c(OC)c3)C2=O)c1OC")
"Y"
>>> group_label("COc1cccc(/C=C2\\CCC/C(=C\\C(C)Cc3ccc4c(c3)OCO4)C2=O)c1OC (stereo unspecified)")
"Y"
>>> group_label("COc1cc([N+](=O)[O-])ccc1/C=C1\\CCC/C(=C\\c2cccc(OC)c2OC)C1=O")
"Y"
>>> group_label("COc1cccc(/C=C2\\CCC/C(=C\\c3cccc(Br)c3)C2=O)c1OC")
"N"
>>> group_label("O=C1/C(=C/c2ccc3c(c2)OCO3)CCC/C1=C\\c1ccc2c(c1)OCO2")
"Y"

Identify whether the reported selectivity ratio of the following molecule is 10 or greater: O=C1/C(=C/c2ccccc2)CCC/C1=C\c1ccccc1 [2,6-DIBENZYLIDENECYCLOHEXANONE]
Y

Identify whether the reported selectivity ratio of the following molecule is 10 or greater: COc1cccc(/C=C2\CCC/C(=C\c3ccc(Br)cc3)C2=O)c1OC
N

###

Test system: Trypanosoma cruzi
experimental.details: Antiparasitic activity against trypomastigote form of Trypanosoma cruzi assessed as parasite lysis after 24 hrs by Pizzi-Brener method
Format: functional, organism-based
Note to self: EC50 under 60 µM means class 1, ties and anything higher get class 0.

>>> group_label("COc1ccc(/C=C2\\CCC/C(=C\\c3ccc([N+](=O)[O-])cc3)C2=O)cc1")
"class 0"

Please look at the following molecule next.
EC50 under 60 µM? Item: COc1ccc(/C=C2\CCC/C(=C\c3ccc(N(C)C)cc3)C2=O)cc1
class 0

###

experimental.details: Selectivity index, ratio of CC50 for African green monkey Vero cells to EC50 for trypomastigote form of Trypanosoma cruzi
Type: toxicity
measurement.parameters: read-out: Ratio CC50/EC50
Where selectivity ratio equals or exceeds 0.8, the correct label is Met; where it does not, the label is Not met.

Solved cases below.
>>> group_label("O=C1/C(=C/c2cccc(Br)c2)CCC/C1=C\\c1cccc(Br)c1")
"Not met"
>>> group_label("COc1cccc(/C=C2\\CCC/C(=C\\c3ccccc3)C2=O)c1OC")
"Not met"
>>> group_label("COc1ccc(/C=C2\\CCC/C(=C\\c3cccc(OC)c3OC)C2=O)cc1")
"Met"
>>> group_label("COc1cccc(/C=C2\\CCC/C(=C\\C(C)Cc3ccc4c(c3)OCO4)C2=O)c1OC (stereo unspecified)")
"Met"
>>> group_label("COc1cccc(/C=C2\\CCC/C(=C\\c3ccc(F)cc3)C2=O)c1OC")
"Not met"

Identify whether the reported selectivity ratio of the following compound is 0.8 or greater: O=C1/C(=C/c2ccc3c(c2)OCO3)CCC/C1=C\c1ccc2c(c1)OCO2
Met

Identify whether the reported selectivity ratio of the following compound is 0.8 or greater: COc1cccc(/C=C2\CCC/C(=C\c3cccc(OC)c3OC)C2=O)c1OC
Met

Identify whether the reported selectivity ratio of the following compound is 0.8 or greater: O=C1/C(=C/c2c(Cl)cccc2Cl)CCC/C1=C\c1c(Cl)cccc1Cl
Met

Identify whether the reported selectivity ratio of the following compound is 0.8 or greater: COc1cccc(/C=C2\CCC/C(=C\c3cccc(Br)c3)C2=O)c1OC
Not met

Identify whether the reported selectivity ratio of the following compound is 0.8 or greater: COc1ccc(/C=C2\CCC/C(=C\c3c(Cl)cccc3Cl)C2=O)cc1
Met

Identify whether the reported selectivity ratio of the following compound is 0.8 or greater: COc1cc(/C=C2\CCC/C(=C\c3cc(OC)c(OC)c(OC)c3)C2=O)cc(OC)c1OC
Met

Identify whether the reported selectivity ratio of the following compound is 0.8 or greater: COc1cccc(/C=C2\CCC/C(=C\c3cc(OC)c(OC)c(OC)c3)C2=O)c1OC
Met

###

# CC50 per entry
experimental.details: Cytotoxicity against African green monkey Vero cells assessed as growth inhibition
Type: cell-based
measurement.parameters: chlorocebus sabaeus

Below, 10 compounds whose answers are already recorded.
>>> reported("COc1cccc(/C=C2\\CCC/C(=C\\c3cccc(Br)c3)C2=O)c1OC")
"31.5 µM"
>>> reported("COc1ccc(/C=C2\\CCC/C(=C\\c3ccccc3Cl)C2=O)cc1")
"238 µM"
>>> reported("O=C1/C(=C/c2ccc3c(c2)OCO3)CCC/C1=C\\c1ccc2c(c1)OCO2")
"257 µM"
>>> reported("COc1cccc(/C=C2\\CCC/C(=C\\c3c(Cl)cccc3Cl)C2=O)c1OC")
"160 µM"
>>> reported("COc1cccc(/C=C2\\CCC/C(=C\\c3ccc([N+](=O)[O-])cc3)C2=O)c1OC")
"< 10 µM"
>>> reported("COc1cccc(/C=C2\\CCC/C(=C\\c3cccc(OC)c3OC)C2=O)c1OC")
"24.9 µM"
>>> reported("COc1cccc(/C=C2\\CCC/C(=C\\c3cc(OC)c(OC)c(OC)c3)C2=O)c1OC")
"29.3 µM"
>>> reported("O=C1/C(=C/c2c(Cl)cccc2Cl)CCC/C1=C\\c1c(Cl)cccc1Cl")
"574 µM"
>>> reported("COc1ccc(/C=C2\\CCC/C(=C\\c3ccc([N+](=O)[O-])cc3)C2=O)cc1")
"435 µM"
>>> reported("COc1ccc(/C=C2\\CCC/C(=C\\c3cccc(OC)c3OC)C2=O)cc1")
"401 µM"

Switching to the query record.
Which measured CC50 value corresponds to COc1cc(/C=C2\CCC/C(=C\c3cc(OC)c(OC)c(OC)c3)C2=O)cc(OC)c1OC ?
155 µM

###

experimental.details: Cytotoxicity against African green monkey Vero cells assessed as growth inhibition
Type: cell-based
measurement.parameters: chlorocebus sabaeus
# log10(CC50) per entry
// stored as log10 of CC50 expressed in µM

>>> reported("COc1cc(/C=C/C(=O)CC(=O)/C=C/c2ccc(O)c(OC)c2)ccc1O [CURCUMIN]")
1.57

Which measured log10(CC50) value corresponds to O=C1/C(=C/c2ccccc2)CCC/C1=C\c1ccccc1 [2,6-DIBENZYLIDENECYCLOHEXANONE] ?
1.61

###

experimental.details: Cytotoxicity against African green monkey Vero cells assessed as growth inhibition
Type: cell-based
measurement.parameters: chlorocebus sabaeus
# CC50 per entry
The reply should be a number in µM, with the unit left off.

Below, 5 compounds whose answers are already recorded.
>>> reported("O=C1/C(=C/c2ccc(Cl)cc2)CCC/C1=C\\c1ccc(Cl)cc1")
32.1
>>> reported("COc1ccc(/C=C2\\CCC/C(=C\\c3ccc(Br)cc3)C2=O)cc1")
250
>>> reported("COc1cccc(/C=C2\\CCC/C(=C\\c3ccc(Br)cc3)C2=O)c1OC")
31.5
>>> reported("COc1cccc(/C=C2\\CCC/C(=C\\C(C)Cc3ccc4c(c3)OCO4)C2=O)c1OC (stereo not given)")
178
>>> reported("O=C1/C(=C/c2ccc(Br)cc2)CCC/C1=C\\c1ccc(Br)cc1")
58

Which measured CC50 value corresponds to COc1ccc(/C=C2\CCC/C(=C\c3ccccc3)C2=O)cc1 ?
291

###

System: Trypanosoma cruzi
experimental.details: Antiparasitic activity against trypomastigote form of Trypanosoma cruzi assessed as parasite lysis after 24 hrs by Pizzi-Brener method
Format: functional, organism-based
# pEC50 per entry
FYI, pEC50 means -log10 of a concentration in mol per litre.

>>> reported("O=C1/C(=C/c2ccc(Cl)cc2)CCC/C1=C\\c1ccc(Cl)cc1")
4.07
>>> reported("O=C1/C(=C/c2c(Cl)cccc2Cl)CCC/C1=C\\c1c(Cl)cccc1Cl")
4.03
>>> reported("COc1cccc(/C=C2\\CCC/C(=C\\c3ccc(F)cc3)C2=O)c1OC")
4.15
>>> reported("COc1cccc(/C=C2\\CCC/C(=C\\c3ccc(Br)cc3)C2=O)c1OC")
4.11
>>> reported("O=C1/C(=C/c2cccc(Br)c2)CCC/C1=C\\c1cccc(Br)c1")
4.20
>>> reported("O=C1/C(=C/c2ccc(F)cc2)CCC/C1=C\\c1ccc(F)cc1")
4.16

Which measured pEC50 value corresponds to COc1cccc(/C=C2\CCC/C(=C\c3ccc([N+](=O)[O-])cc3)C2=O)c1OC ?
4.56

Which measured pEC50 value corresponds to COc1cccc(/C=C2\CCC/C(=C\C(C)Cc3ccc4c(c3)OCO4)C2=O)c1OC (centres undefined) ?
4.09

Which measured pEC50 value corresponds to O=C1/C(=C/c2ccc(Br)cc2)CCC/C1=C\c1ccc(Br)cc1 ?
4.31
